These measurements were taken from patent US20180193423A1.

Each entry below carries its reported EC 50 vpac1 (Molar), cell-based cAMP assay.
Biological target: T1, VPAC1 receptor (UniProt P32241 31-457, limits assumed)
T1 sequence (looked up): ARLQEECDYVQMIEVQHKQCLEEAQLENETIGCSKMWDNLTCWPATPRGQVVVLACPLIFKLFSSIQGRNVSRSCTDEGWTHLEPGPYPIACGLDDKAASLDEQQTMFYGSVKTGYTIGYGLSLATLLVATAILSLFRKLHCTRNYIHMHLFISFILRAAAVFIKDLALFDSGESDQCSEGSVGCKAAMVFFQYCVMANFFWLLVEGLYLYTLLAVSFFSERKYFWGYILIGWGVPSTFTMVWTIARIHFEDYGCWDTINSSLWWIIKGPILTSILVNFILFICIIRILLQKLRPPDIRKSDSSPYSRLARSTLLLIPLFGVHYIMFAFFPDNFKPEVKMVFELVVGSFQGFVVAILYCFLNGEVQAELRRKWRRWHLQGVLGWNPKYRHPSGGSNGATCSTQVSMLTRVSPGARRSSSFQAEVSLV
Experiment: cell-based or functional assay
Primed or numbered codes have the meaning given here. Where no end group is shown, it is not given here. [ ]: non-standard residue; d: D form. APC″ = 3-aminopyrrolidine-4-carboxylic acid (cyclic β-amino acid); ACPC″ = 2-aminocyclopentanecarboxylic acid (x in the sequences); APC = 3-aminopyrrolidine-4-carboxylic acid; ACPC = 2-aminocyclopentanecarboxylic acid; β3hY = N[C@H](CC(=O)O)Cc1ccc(O)cc1; β3hR = N=C(N)NCCC[C@H](N)CC(=O)O; β3hL = CC(C)C[C@H](N)CC(=O)O; β3hK = NCCCC[C@H](N)CC(=O)O; β3hV = CC(C)[C@H](N)CC(=O)O; βAla = NCCC(=O)O

Answered examples (3):
Ac-H[ACPC″]DA[ACPC″]FTE[ACPC″][β3hY]TKLRKQ[β3hL]AA[APC″]KY[ACPC″]NDL[β3hK]KG[βAla]T (not fully specified (C-terminus); printed as Ac-HxDAxFTExyTKLRKQlAAzKYxNDLkKGgT) [LBT-V217] :: 0.785 µM
Ac-H[ACPC]DA[β3hV]FTENYTKLR[β3hK]QLAA[APC]KY[ACPC]NDL[β3hK]KG[βAla]T (not fully specified (C-terminus); printed as Ac-HxDAvFTENYTKLRkQLAAzKYxNDLkKGgT) [LBT-V213] :: 0.293 µM
Ac-H[ACPC″]DA[β3hV]FTENYTKL[β3hR]KQLAA[APC″]KY[ACPC″]NDL[β3hK]KG[βAla]T (not fully specified (C-terminus); printed as Ac-HxDAvFTENYTKLrKQLAAzKYxNDLkKGgT) [LBT-V214] :: > 1 µM

// switching to the query binder
-- ask Give EC 50 vpac1 (Molar), cell-based cAMP assay for the following binder: Ac-H[ACPC]DAVFTENYTKLRKQLAA[APC]KY[ACPC]NDL[β3hK]KG[βAla]T (not fully specified (C-terminus); printed as Ac-HxDAVFTENYTKLRKQLAAzKYxNDLkKGgT) [LBT-V207]
-- reply > 1 µM
